Reference source: patent US20140274782A1

Target entity: T1, G9a and GLP (Homo sapiens, UniProt Q96KQ7+Q9H9B1)
T1 sequence (Q96KQ7 2-1210 limits assumed): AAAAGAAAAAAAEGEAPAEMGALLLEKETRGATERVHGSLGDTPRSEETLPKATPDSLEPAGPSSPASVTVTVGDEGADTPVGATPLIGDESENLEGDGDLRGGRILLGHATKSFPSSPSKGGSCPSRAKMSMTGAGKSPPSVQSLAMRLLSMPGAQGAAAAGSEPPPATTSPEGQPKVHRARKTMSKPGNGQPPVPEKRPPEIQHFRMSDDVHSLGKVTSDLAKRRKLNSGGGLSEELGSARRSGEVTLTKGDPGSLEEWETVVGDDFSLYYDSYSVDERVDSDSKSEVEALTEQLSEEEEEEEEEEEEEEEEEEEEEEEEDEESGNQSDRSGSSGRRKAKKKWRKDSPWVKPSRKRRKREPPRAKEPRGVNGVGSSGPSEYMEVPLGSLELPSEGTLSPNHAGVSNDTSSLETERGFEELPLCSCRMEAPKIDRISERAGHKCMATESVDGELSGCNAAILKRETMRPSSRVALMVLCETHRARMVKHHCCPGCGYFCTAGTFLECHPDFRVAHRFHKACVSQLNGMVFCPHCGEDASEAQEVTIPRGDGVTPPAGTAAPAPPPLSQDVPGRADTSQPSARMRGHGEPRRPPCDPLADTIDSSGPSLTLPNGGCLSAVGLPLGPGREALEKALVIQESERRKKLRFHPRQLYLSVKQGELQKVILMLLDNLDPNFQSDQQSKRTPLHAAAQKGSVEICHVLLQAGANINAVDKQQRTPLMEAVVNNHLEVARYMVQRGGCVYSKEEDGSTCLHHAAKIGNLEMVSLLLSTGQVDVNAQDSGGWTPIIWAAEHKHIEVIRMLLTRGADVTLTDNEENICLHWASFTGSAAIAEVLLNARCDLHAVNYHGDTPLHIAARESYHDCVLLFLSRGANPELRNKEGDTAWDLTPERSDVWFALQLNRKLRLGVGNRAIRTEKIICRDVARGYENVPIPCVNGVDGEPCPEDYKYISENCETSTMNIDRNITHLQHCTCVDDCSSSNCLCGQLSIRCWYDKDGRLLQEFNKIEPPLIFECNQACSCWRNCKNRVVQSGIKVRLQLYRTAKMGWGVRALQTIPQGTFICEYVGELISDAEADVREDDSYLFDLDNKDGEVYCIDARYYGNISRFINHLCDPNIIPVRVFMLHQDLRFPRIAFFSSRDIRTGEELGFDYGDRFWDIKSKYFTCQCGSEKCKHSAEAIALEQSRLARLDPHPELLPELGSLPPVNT
T1 sequence (Q9H9B1 2-1298 limits assumed): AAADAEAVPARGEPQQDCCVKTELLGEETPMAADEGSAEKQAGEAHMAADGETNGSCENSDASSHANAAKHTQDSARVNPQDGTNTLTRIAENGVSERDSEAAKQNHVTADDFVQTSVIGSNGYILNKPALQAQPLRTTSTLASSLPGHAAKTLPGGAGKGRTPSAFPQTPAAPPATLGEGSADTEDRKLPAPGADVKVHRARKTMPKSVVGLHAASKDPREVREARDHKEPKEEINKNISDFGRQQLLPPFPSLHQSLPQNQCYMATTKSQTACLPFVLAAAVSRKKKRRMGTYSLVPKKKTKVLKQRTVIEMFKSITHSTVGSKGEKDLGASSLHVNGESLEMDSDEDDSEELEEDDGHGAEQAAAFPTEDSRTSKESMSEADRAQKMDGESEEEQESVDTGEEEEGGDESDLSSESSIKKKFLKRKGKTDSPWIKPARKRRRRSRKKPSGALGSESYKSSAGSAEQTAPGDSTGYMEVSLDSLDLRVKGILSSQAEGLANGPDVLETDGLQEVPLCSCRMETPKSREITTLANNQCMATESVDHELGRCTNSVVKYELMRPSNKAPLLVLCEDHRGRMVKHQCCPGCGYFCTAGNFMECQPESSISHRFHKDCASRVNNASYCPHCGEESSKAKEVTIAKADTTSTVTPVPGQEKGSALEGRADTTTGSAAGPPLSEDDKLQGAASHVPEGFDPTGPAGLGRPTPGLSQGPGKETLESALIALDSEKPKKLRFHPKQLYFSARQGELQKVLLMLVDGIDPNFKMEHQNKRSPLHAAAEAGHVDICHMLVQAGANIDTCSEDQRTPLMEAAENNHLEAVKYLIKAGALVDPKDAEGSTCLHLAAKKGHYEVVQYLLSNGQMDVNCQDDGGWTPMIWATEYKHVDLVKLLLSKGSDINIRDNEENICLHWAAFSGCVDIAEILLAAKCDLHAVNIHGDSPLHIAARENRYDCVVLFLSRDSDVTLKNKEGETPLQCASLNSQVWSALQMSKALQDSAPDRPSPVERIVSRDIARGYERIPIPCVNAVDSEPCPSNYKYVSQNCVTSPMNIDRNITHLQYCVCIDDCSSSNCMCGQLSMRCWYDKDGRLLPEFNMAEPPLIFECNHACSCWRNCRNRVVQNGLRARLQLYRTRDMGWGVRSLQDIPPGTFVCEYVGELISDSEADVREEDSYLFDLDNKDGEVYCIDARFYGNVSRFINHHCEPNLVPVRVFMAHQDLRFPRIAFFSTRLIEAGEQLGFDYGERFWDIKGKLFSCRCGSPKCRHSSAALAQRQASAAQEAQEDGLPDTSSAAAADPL
Assay summary: Triple SILAC pull-down after UNC0638 treatment of 293T cells, DMSO/UNC0638 ratio of protein captured by 3×MBT;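 note: mass spectrometry (Q-Exactive) SILAC quantitation, DMSO/UNC0638 ratio computed after subtracting 3×MBTD355N mutant pull-down background, only proteins with at least twofold 3×MBT over mutant signal considered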
Assay type: cell-based
Set-up: cells were treated for 24 hours with UNC0638 at 2.5 μM or DMSO vehicle control; endogenous in cells; host or cells: HEK 293T
Recorded conditions: average of UNC Light and UNC Heavy experiments
Measurement type: Relative to UNC0638 Average
A bare number is not enough; add the unit after it.

Entry PCBP2 (protein, UniProt Q15366 1-365, looked up) Poly(rC)-binding protein 2: MDTGVIEGGLNVTLTIRLLMHGKEVGSIIGKKGESVKKMREESGARINISEGNCPERIITLAGPTNAIFKAFAMIIDKLEEDISSSMTNSTAASRPPVTLRLVVPASQCGSLIGKGGCKIKEIRESTGAQVQVAGDMLPNSTERAITIAGIPQSIIECVKQICVVMLETLSQSPPKGVTIPYRPKPSSSPVIFAGGQDRYSTGSDSASFPHTTPSMCLNPDLEGPPLEAYTIQGQYAIPQPDLTKLHQLAMQQSHFPMTHGNTGFSGIESSSPEVKGYWGLDASAQTTSHELTIPNDLIGCIIGRQGAKINEIRQMSGAQIKIANPVEGSTDRQVTITGSAASISLAQYLINVRLSSETGGMGSS has what Relative to UNC0638 Average?
0.17 log base 2
